# target: Dual specificity tyrosine-phosphorylation-regulated kinase 2 (Homo sapiens) (UniProt Q92630);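 also: reported values are means of DYRK2 inhibition from screening the GSK PKIS collection at 1 µM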
# Sequence (Q92630 whole entry): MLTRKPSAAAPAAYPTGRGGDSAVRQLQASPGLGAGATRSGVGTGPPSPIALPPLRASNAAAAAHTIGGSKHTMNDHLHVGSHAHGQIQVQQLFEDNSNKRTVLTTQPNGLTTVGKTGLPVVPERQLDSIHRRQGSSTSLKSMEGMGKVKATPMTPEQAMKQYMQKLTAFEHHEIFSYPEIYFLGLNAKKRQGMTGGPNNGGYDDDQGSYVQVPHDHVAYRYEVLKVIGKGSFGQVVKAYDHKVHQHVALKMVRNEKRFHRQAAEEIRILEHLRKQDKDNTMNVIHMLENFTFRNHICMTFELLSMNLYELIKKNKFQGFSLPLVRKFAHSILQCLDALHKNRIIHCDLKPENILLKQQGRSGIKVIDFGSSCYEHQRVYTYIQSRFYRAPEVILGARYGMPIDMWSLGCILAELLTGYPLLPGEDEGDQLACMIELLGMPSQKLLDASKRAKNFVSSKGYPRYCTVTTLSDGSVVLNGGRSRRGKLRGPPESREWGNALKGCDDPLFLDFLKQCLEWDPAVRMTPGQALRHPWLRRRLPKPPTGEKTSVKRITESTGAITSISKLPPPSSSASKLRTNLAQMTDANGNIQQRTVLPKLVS
# measurement.setup: at 1 µM
inhibition below 4% gives 0.0; inhibition at or above it gives 1.0.

Query :: Reported inhibition reaches at least 4% for CCCNc1cccc(-n2ncc3c(N/N=C/c4ccncc4)ncnc32)c1 ?
Result :: 1.0

Query :: Reported inhibition reaches at least 4% for Cc1ccc(-c2cc3c(NC(=O)C4CC4)ncnc3o2)cc1 ?
Result :: 1.0

Query :: Reported inhibition reaches at least 4% for CS(=O)(=O)CCNCc1ccc(-c2ccc3ncnc(Nc4ccc(OCc5cccc(C(F)(F)F)c5)cc4)c3c2)o1 ?
Result :: 1.0

Next:
Query :: Reported inhibition reaches at least 4% for CS(=O)(=O)CCNCc1ccc(-c2ccc3ncnc(Nc4ccc(OCc5ccccc5)cc4)c3c2)o1 ?
Result :: 0.0

Query :: Reported inhibition reaches at least 4% for CC(C)c1ccc(-c2cc(-c3c[nH]nc3-c3ccccn3)ccn2)cc1 ?
Result :: 0.0

Query :: Reported inhibition reaches at least 4% for Cn1c(-c2nonc2N)nc2cnccc21 ?
Result :: 1.0

----------
# Tested on: Receptor-type tyrosine-protein kinase FLT3 (Homo sapiens), P36888 [D835Y]
# measurement.setup: at 1 µM
# Lookup of reported inhibition keyed by entry
Numeric only. Scale: %

Query :: State the recorded inhibition for this entry: CNC(=O)c1ncccc1Nc1nc(Nc2cc3c(cc2OC)CCCN3C(=O)CN(C)C)nc2[nH]ccc12
Result :: 2.75

Query :: State the recorded inhibition for this entry: CN1CCC(n2cnc(-c3ccc(F)cc3)c2-c2ccnc(NCCO)n2)CC1
Result :: 4.59

Query :: State the recorded inhibition for this entry: CC(C)c1ccc(-c2cc(-c3c[nH]nc3-c3ccccn3)ccn2)cc1
Result :: 1.71

----------
# target: Serine/threonine-protein kinase BRSK2 (Homo sapiens) (UniProt Q8IWQ3);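 also: mean kinase inhibition reported within the GSK PKIS dataset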
# Sequence (Q8IWQ3 whole entry): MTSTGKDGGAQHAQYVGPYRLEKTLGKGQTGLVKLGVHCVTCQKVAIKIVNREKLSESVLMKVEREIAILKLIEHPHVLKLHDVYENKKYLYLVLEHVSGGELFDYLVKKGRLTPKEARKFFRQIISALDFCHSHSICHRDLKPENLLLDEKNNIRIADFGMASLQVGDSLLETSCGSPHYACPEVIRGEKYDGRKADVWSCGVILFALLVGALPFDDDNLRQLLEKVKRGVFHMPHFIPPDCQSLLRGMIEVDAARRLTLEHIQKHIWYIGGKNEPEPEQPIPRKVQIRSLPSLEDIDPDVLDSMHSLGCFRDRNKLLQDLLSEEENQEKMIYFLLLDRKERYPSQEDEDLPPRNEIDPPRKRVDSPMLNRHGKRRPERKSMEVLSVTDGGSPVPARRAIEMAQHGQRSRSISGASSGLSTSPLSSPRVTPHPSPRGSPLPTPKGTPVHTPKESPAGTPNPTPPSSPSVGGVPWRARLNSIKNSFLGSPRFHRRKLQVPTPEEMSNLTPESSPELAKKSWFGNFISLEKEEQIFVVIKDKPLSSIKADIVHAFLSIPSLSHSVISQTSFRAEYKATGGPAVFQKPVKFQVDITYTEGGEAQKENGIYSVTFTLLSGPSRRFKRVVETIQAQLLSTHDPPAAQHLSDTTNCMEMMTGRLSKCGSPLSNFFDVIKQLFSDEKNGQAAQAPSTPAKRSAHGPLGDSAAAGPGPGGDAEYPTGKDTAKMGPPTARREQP
# measurement.setup: at 1 µM
# Lookup of reported inhibition keyed by entry
Numeric only. Scale: %

Query :: State the recorded inhibition for this entry: CN1CCC(n2cnc(-c3ccc(F)cc3)c2-c2ccnc(NCCO)n2)CC1
Result :: 6.29

Next:
Query :: State the recorded inhibition for this entry: O=C(O[C@H]1CN[C@H](C#Cc2cc3ncnc(Nc4ccc(OCc5cccc(F)c5)c(Cl)c4)c3s2)C1)N1CCOCC1
Result :: 3.32

Query :: State the recorded inhibition for this entry: N#Cc1ccc2c(-c3ccnc(NC4CC4)n3)c(-c3ccc(F)cc3)nn2c1
Result :: 1.09

Query :: State the recorded inhibition for this entry: CC(C)c1ccc(-c2cc(-c3c[nH]nc3-c3ccccn3)ccn2)cc1
Result :: 0.33

Query :: State the recorded inhibition for this entry: Cc1cc(O)cc(C)c1/C=C/c1cncc(C(=O)OC(C)(C)C)c1
Result :: 3.54

Query :: State the recorded inhibition for this entry: COc1ccc2ncn(-c3cc(O[C@H](C)c4ccccc4C(F)(F)F)c(C(N)=O)s3)c2c1
Result :: 36.5

Query :: State the recorded inhibition for this entry: NS(=O)(=O)c1ccc(N/N=C2\C(=O)Nc3cccc(CCc4ccncc4)c32)cc1
Result :: 15.8

Query :: State the recorded inhibition for this entry: COc1cccc(-n2ncc3c(N/N=C/c4ccc(C(=O)NCCN(C)C)cc4)ncnc32)c1
Result :: 72

Query :: State the recorded inhibition for this entry: CNC(=O)c1ncccc1Nc1nc(Nc2cc3c(cc2OC)CCCN3C(=O)CN(C)C)nc2[nH]ccc12
Result :: 4.64

Query :: State the recorded inhibition for this entry: COC(=O)Nc1nc2ccc(Oc3ccc(NC(=O)Nc4cc(C(F)(F)F)ccc4F)cc3)cc2s1
Result :: 0.24

Query :: State the recorded inhibition for this entry: CCn1c(-c2nonc2N)nc2cncc(C(=O)NCCNC)c21
Result :: 9.29

Query :: State the recorded inhibition for this entry: Cn1c(-c2nonc2N)nc2cnccc21
Result :: 6.4

Query :: State the recorded inhibition for this entry: CCN1CCC(C(=O)Nc2n[nH]c3nnc(-c4cccc(F)c4F)cc23)CC1
Result :: 3.77

Query :: State the recorded inhibition for this entry: CS(=O)(=O)CCNCc1ccoc1-c1ccc2ncnc(Nc3ccc(OCc4ccccc4)cc3)c2c1
Result :: 1.27

Query :: State the recorded inhibition for this entry: Cc1cc(O)cc(C)c1/C=C/c1cncc(C(N)=O)c1
Result :: 9.42

----------
# target: Mitogen-activated protein kinase 12 (Homo sapiens);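 also: values are averaged p38gamma kinase inhibition readings, compounds tested at 1 µM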
# Sequence (whole entry): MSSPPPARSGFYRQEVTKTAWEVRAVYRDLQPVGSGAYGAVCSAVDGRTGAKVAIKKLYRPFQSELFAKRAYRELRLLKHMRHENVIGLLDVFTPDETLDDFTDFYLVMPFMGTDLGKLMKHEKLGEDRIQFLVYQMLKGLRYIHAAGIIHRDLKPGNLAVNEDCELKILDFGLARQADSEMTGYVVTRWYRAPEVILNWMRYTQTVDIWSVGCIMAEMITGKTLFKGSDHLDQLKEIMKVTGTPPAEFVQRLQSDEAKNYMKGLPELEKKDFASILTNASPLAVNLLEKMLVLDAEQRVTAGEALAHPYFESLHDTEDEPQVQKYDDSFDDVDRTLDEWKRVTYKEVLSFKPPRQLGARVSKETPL
# measurement.setup: at 1 µM
readout: inhibition (%)
Numeric only. Scale: %

Query :: State the recorded inhibition for this entry: COc1ccc2ncn(-c3cc(O[C@H](C)c4ccccc4C(F)(F)F)c(C(N)=O)s3)c2c1
Result :: -0.21

Query :: State the recorded inhibition for this entry: NS(=O)(=O)c1ccc(N/N=C2\C(=O)Nc3ccc(C(=O)NCc4ccncc4)cc32)cc1
Result :: 2.56

Query :: State the recorded inhibition for this entry: N#Cc1cccc(Nc2ncc(-c3ccccc3)o2)c1
Result :: 1.79

Query :: State the recorded inhibition for this entry: CNC(=O)c1cncc(/C=C/c2ccccc2C)c1
Result :: 1.72

Next:
Query :: State the recorded inhibition for this entry: NS(=O)(=O)c1ccc(N/N=C2\C(=O)Nc3cccc(CCc4ccncc4)c32)cc1
Result :: 0.75

Query :: State the recorded inhibition for this entry: CS(=O)(=O)CCNCc1ccoc1-c1ccc2ncnc(Nc3ccc(OCc4ccccc4)cc3)c2c1
Result :: 0.43

----------
# Tested on: Tyrosine-protein kinase ABL1 (Homo sapiens), P00519 [Q252H]
# measurement.setup: at 0.1 µM
readout: inhibition (%)
Numeric only. Scale: %

Worked examples, 2 molecules total:
Query :: State the recorded inhibition for this entry: N#Cc1cccc(Nc2ncc(-c3ccccc3)o2)c1
Result :: 3.25

Query :: State the recorded inhibition for this entry: O=C(Nc1n[nH]c2nnc(-c3cccnc3)cc12)C1CC1
Result :: 0.59

# evaluate next
Query :: State the recorded inhibition for this entry: CC1(C)CC(n2cnc(-c3ccc(F)cc3)c2-c2ccnc(N)n2)CC(C)(C)N1
Result :: 0.65

----------
# Lookup of reported inhibition keyed by entry
# target: Protein-tyrosine kinase 2-beta (Homo sapiens) (UniProt Q14289);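 also: reported as mean percent inhibition of PYK2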
# Sequence (Q14289 whole entry, looked up): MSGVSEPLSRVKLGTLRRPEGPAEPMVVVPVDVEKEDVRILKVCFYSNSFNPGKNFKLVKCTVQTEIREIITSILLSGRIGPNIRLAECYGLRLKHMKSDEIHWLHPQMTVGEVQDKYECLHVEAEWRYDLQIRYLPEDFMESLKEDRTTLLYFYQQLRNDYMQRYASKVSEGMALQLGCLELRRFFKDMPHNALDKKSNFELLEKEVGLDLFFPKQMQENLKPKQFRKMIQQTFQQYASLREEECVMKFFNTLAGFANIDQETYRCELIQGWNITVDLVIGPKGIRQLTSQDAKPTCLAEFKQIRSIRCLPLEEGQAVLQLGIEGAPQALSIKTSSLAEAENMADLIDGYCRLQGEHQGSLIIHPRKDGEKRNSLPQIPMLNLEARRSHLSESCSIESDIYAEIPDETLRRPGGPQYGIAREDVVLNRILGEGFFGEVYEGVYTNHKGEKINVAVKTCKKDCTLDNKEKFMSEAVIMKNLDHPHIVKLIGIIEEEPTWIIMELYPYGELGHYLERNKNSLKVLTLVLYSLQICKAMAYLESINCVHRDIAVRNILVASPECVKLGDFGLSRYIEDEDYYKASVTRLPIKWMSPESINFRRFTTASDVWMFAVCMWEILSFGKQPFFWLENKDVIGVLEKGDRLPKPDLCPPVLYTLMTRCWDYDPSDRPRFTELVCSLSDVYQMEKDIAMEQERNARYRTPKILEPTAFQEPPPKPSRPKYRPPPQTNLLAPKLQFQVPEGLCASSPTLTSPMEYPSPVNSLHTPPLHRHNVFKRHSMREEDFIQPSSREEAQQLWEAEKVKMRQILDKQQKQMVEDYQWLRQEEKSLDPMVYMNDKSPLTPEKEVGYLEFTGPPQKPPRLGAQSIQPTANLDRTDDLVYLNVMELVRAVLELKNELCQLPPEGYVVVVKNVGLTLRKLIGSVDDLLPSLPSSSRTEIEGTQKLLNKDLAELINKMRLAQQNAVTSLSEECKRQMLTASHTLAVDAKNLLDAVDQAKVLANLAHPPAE
# measurement.setup: at 0.1 µM
Numeric only. Scale: %

Worked examples, 4 molecules total:
Query :: State the recorded inhibition for this entry: CNC(=O)c1ncccc1Nc1nc(Nc2cc3c(cc2OC)CCCN3C(=O)CN(C)C)nc2[nH]ccc12
Result :: 37.8

Query :: State the recorded inhibition for this entry: CC1=C(C(=O)Nc2ccc3[nH]ncc3c2)C(c2ccc(F)cc2)N=C(c2ccc(C(F)(F)F)nc2)N1 (stereo not given)
Result :: 6.19

Query :: State the recorded inhibition for this entry: COC(=O)Nc1nc2ccc(Oc3ccc(NC(=O)Nc4cc(C(F)(F)F)ccc4F)cc3)cc2s1
Result :: 1.98

Query :: State the recorded inhibition for this entry: FC(F)(F)CNc1nccc(-c2cnn3ncccc23)n1
Result :: -0.29

Next:
Query :: State the recorded inhibition for this entry: CCN1CCC(C(=O)Nc2n[nH]c3nnc(-c4cccc(F)c4F)cc23)CC1
Result :: -2.3

Query :: State the recorded inhibition for this entry: COc1cc(Nc2ncc(-c3ccccc3)o2)cc(OC)c1
Result :: 6.76

Query :: State the recorded inhibition for this entry: COC(=O)Nc1nc2cc(Oc3ccc(NC(=O)Nc4ccccc4)cc3)ccc2[nH]1
Result :: -1.17

Query :: State the recorded inhibition for this entry: COc1ccc2ncn(-c3cc(O[C@H](C)c4ccccc4C(F)(F)F)c(C(N)=O)s3)c2c1
Result :: -4.13

Query :: State the recorded inhibition for this entry: CN1CCC(n2cnc(-c3ccc(F)cc3)c2-c2ccnc(NCCO)n2)CC1
Result :: 6.77

Query :: State the recorded inhibition for this entry: CCOc1ccc2c(-c3ccnc(Nc4cc(OC)cc(C(F)(F)F)c4)n3)cnn2n1
Result :: 4.61

----------
# target: Homeodomain-interacting protein kinase 1 (Homo sapiens) (UniProt Q86Z02);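 also: values are mean percent inhibition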
# Sequence (Q86Z02 whole entry, looked up): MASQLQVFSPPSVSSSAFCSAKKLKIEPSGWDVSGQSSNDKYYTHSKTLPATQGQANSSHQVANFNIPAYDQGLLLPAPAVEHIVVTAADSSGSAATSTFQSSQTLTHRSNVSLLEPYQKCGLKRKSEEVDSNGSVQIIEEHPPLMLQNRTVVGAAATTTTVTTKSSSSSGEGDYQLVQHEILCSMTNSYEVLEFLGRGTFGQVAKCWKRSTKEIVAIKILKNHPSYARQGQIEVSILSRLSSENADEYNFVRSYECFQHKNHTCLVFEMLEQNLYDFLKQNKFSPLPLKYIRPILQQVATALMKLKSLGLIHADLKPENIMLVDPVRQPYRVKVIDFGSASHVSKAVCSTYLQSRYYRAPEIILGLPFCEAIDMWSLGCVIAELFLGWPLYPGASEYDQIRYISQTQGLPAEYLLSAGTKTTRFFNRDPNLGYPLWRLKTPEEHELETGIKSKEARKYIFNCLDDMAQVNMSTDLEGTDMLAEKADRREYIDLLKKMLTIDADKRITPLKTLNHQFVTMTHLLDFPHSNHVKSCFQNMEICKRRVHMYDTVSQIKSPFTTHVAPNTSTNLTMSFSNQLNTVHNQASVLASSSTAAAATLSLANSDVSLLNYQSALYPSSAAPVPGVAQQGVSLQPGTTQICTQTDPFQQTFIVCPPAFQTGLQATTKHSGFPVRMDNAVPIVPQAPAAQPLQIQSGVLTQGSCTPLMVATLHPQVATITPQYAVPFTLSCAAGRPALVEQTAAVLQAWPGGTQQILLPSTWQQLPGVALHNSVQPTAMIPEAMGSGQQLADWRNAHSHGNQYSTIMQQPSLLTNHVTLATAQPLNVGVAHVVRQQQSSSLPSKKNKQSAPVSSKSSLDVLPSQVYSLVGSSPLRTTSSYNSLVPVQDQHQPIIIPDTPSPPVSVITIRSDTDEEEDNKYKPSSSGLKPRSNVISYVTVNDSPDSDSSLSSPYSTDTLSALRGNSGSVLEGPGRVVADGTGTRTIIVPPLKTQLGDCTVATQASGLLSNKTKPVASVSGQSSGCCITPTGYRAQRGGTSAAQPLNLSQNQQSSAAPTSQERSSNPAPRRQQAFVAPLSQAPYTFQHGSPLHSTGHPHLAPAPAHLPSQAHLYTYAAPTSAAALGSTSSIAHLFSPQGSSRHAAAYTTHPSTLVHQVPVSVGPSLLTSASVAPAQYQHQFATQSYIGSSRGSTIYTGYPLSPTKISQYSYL
# measurement.setup: at 1 µM
# Lookup of reported inhibition keyed by entry
Numeric only. Scale: %

Query :: State the recorded inhibition for this entry: COc1cc(Nc2ncc(-c3ccccc3)o2)cc(OC)c1
Result :: 17.1

Query :: State the recorded inhibition for this entry: CS(=O)(=O)Nc1ccc(-c2ccc3c(NC(=O)C4CC4)n[nH]c3c2)cc1
Result :: 5.67

Query :: State the recorded inhibition for this entry: CN1CCC(n2cnc(-c3ccc(F)cc3)c2-c2ccnc(NCCO)n2)CC1
Result :: 7.67

Query :: State the recorded inhibition for this entry: COC(=O)Nc1nc2ccc(Oc3ccc(NC(=O)Nc4cc(C(F)(F)F)ccc4F)cc3)cc2s1
Result :: 0.81

Query :: State the recorded inhibition for this entry: CCS(=O)(=O)c1ccc(OC)c(Nc2ncc(-c3cccc(F)c3)o2)c1
Result :: 23.8

# evaluate next
Query :: State the recorded inhibition for this entry: COc1ccc(Nc2ncc(-c3ccccc3)o2)cc1OC
Result :: 28.6
